The following compounds are listed with their measured inhibition values.
measurement target: MAP/microtubule affinity-regulating kinase 4 (Homo sapiens);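 also: values are averaged percent inhibition of MARK4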
conditions: at 0.1 µM
Could you give me the number in %? Just the number is fine.

COc1ccc(-c2cc(-c3c[nH]nc3-c3ccccn3)ccn2)cc1    2.2
CN(C)CCOc1ccc(-c2nc(-c3ccncc3)c(-c3ccc4c(c3)CC/C4=N\O)[nH]2)cc1    0.44
Fc1cccc(COc2ccc(Nc3ncnc4sc(-c5ccco5)cc34)cc2Cl)c1    2.34
CCN(CC)S(=O)(=O)c1ccc(OC)c(Nc2ncc(-c3ccccc3)o2)c1    -1.02
Cc1cccc2c1NC(=O)/C2=N\Nc1ccc(S(N)(=O)=O)cc1    1.25

Given the entry COC(=O)Nc1nc2ccc(S(=O)(=O)c3ccc(NC(=O)Nc4cc(C(F)(F)F)ccc4F)cc3)cc2[nH]1 , report its measured inhibition.
1.2

Try Clc1ccc(-c2nn3ncccc3c2-c2ccnc(Nc3ccccc3)n2)cc1 next.
0.1

Would you mind doing COC(=O)Nc1nc2ccc(Oc3ccc(NC(=O)Nc4cccc(Cl)c4)cc3)cc2[nH]1 as well?
-0.16

// same read-out, input: CCn1cc(-c2ccnc3[nH]ccc23)c(-c2cccc(NC(=O)Nc3ccc(OCc4ccccc4)cc3)c2)n1
1.33

Cool, now COc1cccc(-c2c[nH]c3c(N/N=C/c4ccncc4)ncnc23)c1
1.97

What do you have for CN1CCC(n2cnc(-c3ccc(F)cc3)c2-c2ccnc(N)n2)CC1 ?
0.14

// query: Cc1ccc(O)cc1Nc1ccnc2cc(-c3ccccn3)ccc12
2.1

How about this compound: Fc1ccc(-c2nn3ncccc3c2-c2ccnc(Nc3ccc4c(c3)OCCO4)n2)cc1
2.21

Repeat for the following compound: N#Cc1c(NC(=O)CN2CCOCC2)sc2c1CCCC2
1.24

Would you kindly repeat that for NS(=O)(=O)c1ccc(N/N=C2\C(=O)Nc3ccc4ncccc4c32)cc1 ?
11.4

Note, next up: CCOc1ccc2c(-c3ccnc(Nc4cccc(C(F)(F)F)c4)n3)cnn2n1
1.1

Continue with c1ccc(-c2nc3n(c2-c2ccc4c(c2)OCO4)CCC3)nc1
1.03

Quick one: CC(C)COC(=O)c1ccc2c(c1)/C(=C/Nc1ccc(S(N)(=O)=O)cc1)C(=O)N2
24.6

Moving on to COc1ccc2c(-c3ccnc(Nc4cccc(OC(F)(F)F)c4)n3)cnn2n1
1.08

Continue with CC(=O)Nc1cccc(C#Cc2cncnc2Nc2ccc(OCc3cccc(F)c3)c(Cl)c2)c1
0.9

---

measurement target: RAC-gamma serine/threonine-protein kinase (Homo sapiens) (UniProt Q9Y243)
Sequence (Q9Y243 whole entry): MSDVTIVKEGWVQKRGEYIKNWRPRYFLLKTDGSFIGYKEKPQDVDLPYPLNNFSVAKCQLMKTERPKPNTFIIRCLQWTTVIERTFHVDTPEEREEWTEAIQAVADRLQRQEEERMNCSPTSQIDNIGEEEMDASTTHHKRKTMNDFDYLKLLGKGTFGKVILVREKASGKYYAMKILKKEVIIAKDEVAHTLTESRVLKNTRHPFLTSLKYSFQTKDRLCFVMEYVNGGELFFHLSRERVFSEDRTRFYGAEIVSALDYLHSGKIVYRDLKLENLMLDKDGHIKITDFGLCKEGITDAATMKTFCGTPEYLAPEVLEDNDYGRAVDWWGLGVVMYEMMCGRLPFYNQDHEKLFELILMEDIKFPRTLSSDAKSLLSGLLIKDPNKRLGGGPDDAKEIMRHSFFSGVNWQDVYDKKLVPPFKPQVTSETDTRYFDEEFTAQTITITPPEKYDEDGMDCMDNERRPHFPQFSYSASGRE
conditions: at 1 µM
Description: GSK_PKIS: AKT3 mean inhibition at 1 uM [Nanosyn]
Give Criterion met when the value for inhibition is at least 10%. Give Criterion not met when it is less.

Fc1ccc(-c2nn3ccccc3c2-c2ccncc2)cc1    Criterion not met
[O-][S+]1CCN(Cc2ccc(-c3ccc4ncnc(Nc5ccc(OCc6cccc(F)c6)c(Cl)c5)c4c3)o2)CC1    Criterion not met
COC(=O)Nc1nc2ccc(S(=O)(=O)c3ccc(NC(=O)Nc4cc(C(F)(F)F)ccc4F)cc3)cc2[nH]1    Criterion not met

hey, is inhibition for this one >= 10%? CC1=C(C(=O)Nc2cc(Cl)c3[nH]ncc3c2)C(c2ccc(C(F)(F)F)cc2)CC(=O)N1 (centres undefined)
Criterion met

Can you handle CCCN1CCC(c2ccc(Nc3nc(Nc4cc(F)ccc4C(N)=O)c4cc[nH]c4n3)c(OC)c2)CC1 next?
Criterion not met

Queued: CCn1c(-c2nonc2N)nc2c(C#CC(C)(C)O)ncc(OC3CCNCC3)c21
Criterion met

Now try NC(=O)c1sc(-n2cnc3ccc(C(F)(F)F)cc32)cc1OCc1ccccc1Br .
Criterion not met

One more compound: O=C(O[C@H]1CN[C@H](C#Cc2cc3ncnc(Nc4ccc(Cc5ccccc5)cc4)c3s2)C1)N1CCOCC1
Criterion not met

---

System: Mast/stem cell growth factor receptor Kit (Homo sapiens), P10721 [T670I]
Sequence (P10721 whole entry T670I): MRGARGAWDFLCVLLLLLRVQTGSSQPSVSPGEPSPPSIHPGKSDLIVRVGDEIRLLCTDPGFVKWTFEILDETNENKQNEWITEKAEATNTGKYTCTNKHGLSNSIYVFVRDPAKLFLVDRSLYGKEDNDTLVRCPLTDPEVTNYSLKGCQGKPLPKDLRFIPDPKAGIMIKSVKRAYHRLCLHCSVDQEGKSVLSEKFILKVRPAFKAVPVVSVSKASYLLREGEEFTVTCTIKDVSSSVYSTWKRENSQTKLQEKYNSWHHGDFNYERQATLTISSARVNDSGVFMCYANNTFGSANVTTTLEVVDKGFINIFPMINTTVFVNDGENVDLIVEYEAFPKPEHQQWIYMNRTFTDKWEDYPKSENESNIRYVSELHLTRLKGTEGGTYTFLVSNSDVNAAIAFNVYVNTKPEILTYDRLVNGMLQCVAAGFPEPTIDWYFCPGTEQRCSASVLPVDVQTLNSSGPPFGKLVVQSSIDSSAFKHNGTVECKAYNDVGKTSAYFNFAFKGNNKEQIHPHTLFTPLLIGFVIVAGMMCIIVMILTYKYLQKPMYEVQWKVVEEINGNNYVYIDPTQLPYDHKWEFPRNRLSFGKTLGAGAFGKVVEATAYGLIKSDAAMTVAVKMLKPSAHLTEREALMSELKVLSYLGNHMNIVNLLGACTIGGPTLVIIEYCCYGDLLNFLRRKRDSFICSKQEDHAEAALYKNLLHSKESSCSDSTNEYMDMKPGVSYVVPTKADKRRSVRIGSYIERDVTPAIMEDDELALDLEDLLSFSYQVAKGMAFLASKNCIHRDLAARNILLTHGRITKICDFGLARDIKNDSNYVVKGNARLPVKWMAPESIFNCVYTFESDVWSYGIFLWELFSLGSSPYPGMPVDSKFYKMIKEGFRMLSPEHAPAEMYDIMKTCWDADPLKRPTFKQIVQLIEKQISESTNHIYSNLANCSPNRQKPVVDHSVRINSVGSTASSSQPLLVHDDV
conditions: at 0.1 µM
value kind: inhibition (%)
Supply the numeric figure in %, leaving out any unit text.

CCOc1ccc2c(-c3ccnc(Nc4cccc(C(F)(F)F)c4)n3)cnn2n1    1.24

# get_value(readout='inhibition', item= NS(=O)(=O)c1ccc(N/N=C2\C(=O)Nc3ccc4ncccc4c32)cc1 )
10.2

Would you mind doing COc1ccc(-c2nn3ncccc3c2-c2ccnc(Nc3ccc4c(c3)OCCO4)n2)cc1 as well?
3.74

Would you kindly repeat that for CS(=O)(=O)CCNCc1coc(-c2ccc3ncnc(Nc4ccc(OCc5ccccc5)cc4)c3c2)c1 ?
2.17

Lookup N#Cc1c(NC(=O)CN2CCOCC2)sc2c1CCCC2
4.93

Now this one: COc1cc(Nc2nccc(Nc3ccc4c(C)n[nH]c4c3)n2)cc(OC)c1OC
4.19

---

measurement target: Serine/threonine-protein kinase PAK 1 (Homo sapiens) (UniProt Q13153);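 also: values are mean PAK1 inhibition from the GSK PKIS kinase inhibitor set screen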
Sequence (Q13153 whole entry): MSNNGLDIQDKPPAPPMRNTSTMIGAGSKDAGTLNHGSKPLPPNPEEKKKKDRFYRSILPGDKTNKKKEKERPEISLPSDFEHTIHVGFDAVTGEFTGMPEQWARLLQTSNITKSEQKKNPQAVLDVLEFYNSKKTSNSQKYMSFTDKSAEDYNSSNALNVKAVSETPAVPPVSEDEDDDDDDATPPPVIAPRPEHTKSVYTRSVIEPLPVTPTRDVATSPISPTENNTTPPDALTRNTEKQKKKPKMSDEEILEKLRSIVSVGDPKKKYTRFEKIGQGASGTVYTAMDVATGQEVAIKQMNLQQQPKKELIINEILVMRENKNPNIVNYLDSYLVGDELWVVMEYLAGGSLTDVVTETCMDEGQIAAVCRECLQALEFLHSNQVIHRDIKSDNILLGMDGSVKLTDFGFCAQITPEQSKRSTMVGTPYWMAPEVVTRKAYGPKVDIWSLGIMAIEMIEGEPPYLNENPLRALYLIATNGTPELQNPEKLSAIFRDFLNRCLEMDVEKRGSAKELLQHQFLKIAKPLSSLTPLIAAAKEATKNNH
conditions: at 0.1 µM
value kind: inhibition (%)
Give the value in % but do not write % after it.

Cc1ccc2c(-c3ccnc(Nc4ccccc4)n3)c(-c3ccc(F)cc3)nn2n1    3.46
COc1cccc(-c2c[nH]c3c(N/N=C/c4ccncc4)ncnc23)c1    2.35
COc1ccc(-c2cc3c(N)ncnc3o2)cc1    -2.64

Below: the item to evaluate.
Entry CCN1CCC(CC(=O)Nc2n[nH]c3nnc(-c4cccc(F)c4F)cc23)CC1 has what inhibition?
3.95

---

Catalogue of compounds with associated inhibition
measurement target: High affinity nerve growth factor receptor (Homo sapiens) (UniProt P04629);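 also: each value is the mean percent inhibition of TRKA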
Sequence (P04629 33-796 limits assumed): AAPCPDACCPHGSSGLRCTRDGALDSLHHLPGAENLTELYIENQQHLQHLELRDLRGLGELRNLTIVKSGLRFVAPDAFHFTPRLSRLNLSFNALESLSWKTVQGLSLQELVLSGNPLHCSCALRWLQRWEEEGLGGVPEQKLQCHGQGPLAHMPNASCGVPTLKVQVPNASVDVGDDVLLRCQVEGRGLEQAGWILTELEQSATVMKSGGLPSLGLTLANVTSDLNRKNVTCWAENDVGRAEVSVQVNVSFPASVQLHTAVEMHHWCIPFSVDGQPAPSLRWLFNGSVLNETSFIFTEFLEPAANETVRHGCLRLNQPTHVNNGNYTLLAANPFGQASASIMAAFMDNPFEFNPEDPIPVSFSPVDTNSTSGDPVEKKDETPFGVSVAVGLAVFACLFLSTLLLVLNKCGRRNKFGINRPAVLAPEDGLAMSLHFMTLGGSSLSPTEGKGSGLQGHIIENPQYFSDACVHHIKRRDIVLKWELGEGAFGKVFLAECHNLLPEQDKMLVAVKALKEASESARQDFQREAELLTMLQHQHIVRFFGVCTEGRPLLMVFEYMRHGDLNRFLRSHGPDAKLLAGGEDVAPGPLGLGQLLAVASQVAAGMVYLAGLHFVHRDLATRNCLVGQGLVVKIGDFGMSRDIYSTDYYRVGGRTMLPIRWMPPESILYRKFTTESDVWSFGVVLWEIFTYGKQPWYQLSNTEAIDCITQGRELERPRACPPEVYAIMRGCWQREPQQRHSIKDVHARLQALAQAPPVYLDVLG
conditions: at 1 µM
Your answer is read as %, so omit the unit and give the number.

COc1cc(N2CCN(C(C)C)CC2)ccc1Nc1nc(Nc2ccc(F)cc2C(N)=O)c2cc[nH]c2n1    4.26

Bench note: what inhibition did CCCN1CCC(c2ccc(Nc3nc(Nc4cc(F)ccc4C(N)=O)c4cc[nH]c4n3)c(OC)c2)CC1 show?
3.87

Moving on to the next compound: Cc1ccc2c(-c3ccnc(Nc4ccccc4)n3)c(-c3ccc(F)cc3)nn2n1
31.6

Moving on to the next compound: CNC(=O)c1cncc(/C=C/c2ccccc2Cl)c1
-0.75

Input O=S(=O)(CCNCc1ccc(-c2ccc3ncnc(Nc4ccc(OCc5cccc(F)c5)c(Cl)c4)c3c2)o1)c1ccccc1
1.84

Also CNC(=O)c1cc(-c2ccc(F)cc2)cc(-c2ccc(S(=O)(=O)N3CCCC3)cc2)c1N , if possible.
2.94

---

Test system: Epidermal growth factor receptor (Homo sapiens), P00533 [T790M]
Sequence (P00533 whole entry T790M): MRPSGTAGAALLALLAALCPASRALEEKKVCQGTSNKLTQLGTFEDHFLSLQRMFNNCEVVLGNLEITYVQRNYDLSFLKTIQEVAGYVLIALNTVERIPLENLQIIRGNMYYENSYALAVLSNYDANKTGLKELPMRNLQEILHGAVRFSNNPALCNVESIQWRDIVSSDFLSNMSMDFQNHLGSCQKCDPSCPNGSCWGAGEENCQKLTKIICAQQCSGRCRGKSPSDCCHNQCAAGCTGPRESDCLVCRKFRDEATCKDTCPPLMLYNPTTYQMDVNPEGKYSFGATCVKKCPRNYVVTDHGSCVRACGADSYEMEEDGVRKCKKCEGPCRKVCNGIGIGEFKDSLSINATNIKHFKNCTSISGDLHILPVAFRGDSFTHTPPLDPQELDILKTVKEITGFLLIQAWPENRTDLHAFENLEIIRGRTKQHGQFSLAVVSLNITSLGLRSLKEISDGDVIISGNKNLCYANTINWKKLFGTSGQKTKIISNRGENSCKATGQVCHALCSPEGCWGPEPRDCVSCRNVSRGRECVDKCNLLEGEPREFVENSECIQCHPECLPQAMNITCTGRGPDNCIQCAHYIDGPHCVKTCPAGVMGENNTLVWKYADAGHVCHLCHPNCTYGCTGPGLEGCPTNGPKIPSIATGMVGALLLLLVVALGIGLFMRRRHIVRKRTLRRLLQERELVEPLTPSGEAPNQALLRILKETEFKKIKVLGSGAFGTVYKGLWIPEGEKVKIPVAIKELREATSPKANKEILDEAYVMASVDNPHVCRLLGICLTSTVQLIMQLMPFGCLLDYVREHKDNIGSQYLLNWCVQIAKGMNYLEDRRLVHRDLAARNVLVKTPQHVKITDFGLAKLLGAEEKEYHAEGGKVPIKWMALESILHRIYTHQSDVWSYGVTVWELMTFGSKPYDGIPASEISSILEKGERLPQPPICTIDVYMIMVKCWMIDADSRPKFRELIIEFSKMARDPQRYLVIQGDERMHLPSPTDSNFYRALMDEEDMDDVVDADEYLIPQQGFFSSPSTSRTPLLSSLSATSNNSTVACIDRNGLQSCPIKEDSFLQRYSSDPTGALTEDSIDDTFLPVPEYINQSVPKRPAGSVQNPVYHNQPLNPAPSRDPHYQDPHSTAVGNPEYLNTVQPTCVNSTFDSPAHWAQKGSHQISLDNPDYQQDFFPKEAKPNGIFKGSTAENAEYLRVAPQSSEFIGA
conditions: at 1 µM
Label True for high-side inhibition (at or above 10%) and False for low-side inhibition (below it).

A selection of reference data follows.
CCN1CCC(CC(=O)Nc2n[nH]c3nnc(-c4cccc(F)c4F)cc23)CC1    False
CCn1c(-c2nonc2N)nc2cnc(Oc3cccc(NC(=O)c4ccc(N(C)C)cc4)c3)cc21    False
c1ccc(-c2nc3n(c2-c2ccc4c(c2)OCO4)CCC3)nc1    False

Pending molecule:
Could you verify whether the entry COc1cc(N2CCN(C(C)C)CC2)ccc1Nc1nc(Nc2ccc(F)cc2C(N)=O)c2cc[nH]c2n1 shows inhibition of no less than 10%?
True

---

measurement target: Calcium/calmodulin-dependent protein kinase type II subunit alpha (Homo sapiens);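 also: reported values are averages (mean inhibition of CAMK2A)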
conditions: at 0.1 µM
value kind: inhibition (%)
Report only the number, with the unit % understood.

CCn1c(-c2nonc2N)nc2c(C#CC(C)(C)O)ncc(OC3CCNCC3)c21    3.85
CNC(=O)c1cc(-c2ccc(F)cc2)cc(-c2ccc(S(=O)(=O)N3CCCC3)cc2)c1N    0.94
CCn1c(-c2nonc2N)nc2ccccc21    4.29
[O-][S+]1CCN(Cc2ccc(-c3ccc4ncnc(Nc5ccc(OCc6cccc(F)c6)c(Cl)c5)c4c3)o2)CC1    3.06
Clc1ccc(-c2nn3ncccc3c2-c2ccnc(Nc3ccccc3)n2)cc1    0.95

Item Fc1ccc(-c2cc(-c3c[nH]nc3-c3ccccn3)ccn2)cc1 has what recorded inhibition?
3.34

Please do the same for Cc1cccc2c1NC(=O)/C2=N\Nc1ccc(S(N)(=O)=O)cc1 as well.
4.56

Consider next the molecule CC(C)COC(=O)c1ccc2c(c1)/C(=C/Nc1ccc(S(N)(=O)=O)cc1)C(=O)N2 in the same way.
0.26

---

measurement target: Dual specificity tyrosine-phosphorylation-regulated kinase 2 (Homo sapiens);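 also: reported values are means of DYRK2 inhibition from screening the GSK PKIS collection at 1 µM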
Sequence (whole entry): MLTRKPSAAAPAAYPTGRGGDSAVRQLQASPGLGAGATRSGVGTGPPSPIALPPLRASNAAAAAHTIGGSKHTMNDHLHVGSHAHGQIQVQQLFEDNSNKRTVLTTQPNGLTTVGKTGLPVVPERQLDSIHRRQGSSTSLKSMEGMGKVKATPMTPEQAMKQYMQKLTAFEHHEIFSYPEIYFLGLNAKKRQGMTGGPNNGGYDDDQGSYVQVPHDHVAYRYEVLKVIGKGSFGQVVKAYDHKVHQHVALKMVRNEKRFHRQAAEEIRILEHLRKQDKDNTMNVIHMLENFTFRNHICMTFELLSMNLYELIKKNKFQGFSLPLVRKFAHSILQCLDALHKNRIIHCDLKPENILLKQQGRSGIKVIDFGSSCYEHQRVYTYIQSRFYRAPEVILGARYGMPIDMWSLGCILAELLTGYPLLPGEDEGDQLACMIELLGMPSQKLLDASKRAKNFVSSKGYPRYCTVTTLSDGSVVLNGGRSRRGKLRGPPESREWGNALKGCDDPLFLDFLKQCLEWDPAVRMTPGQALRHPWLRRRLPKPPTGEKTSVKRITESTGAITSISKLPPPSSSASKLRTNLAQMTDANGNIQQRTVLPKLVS
conditions: at 1 µM
In this section, each of the molecules is paired with its reported inhibition.
Express your answer in %, writing the number without its unit.

Recorded results for 5 molecules are shown here.
Fc1ccc(-c2nn3ccccc3c2-c2ccncc2)cc1    1.76
COc1ccc2[nH]c3c4[nH]c5ccc(OC)cc5c4c4c(c3c2c1)C(=O)NC4=O    29
FC(F)(F)c1cccc(-c2nn3ncccc3c2-c2ccnc(Nc3ccc4c(c3)OCCO4)n2)c1    3.26
Nc1ncc(-c2cccc(S(N)(=O)=O)c2)c2scc(-c3ccc(F)c(Cl)c3)c12    2.46
O=C(O[C@H]1CN[C@H](C#Cc2cc3ncnc(Nc4ccc(Cc5ccccc5)cc4)c3s2)C1)N1CCOCC1    0.33

Please give the measured inhibition for this molecule: COc1ccc2c(-c3ccnc(Nc4cccc(OC(F)(F)F)c4)n3)cnn2n1
16

Same again, this time with COc1ccc(CNC(=O)c2ccc(-c3cc(-c4nnc(C)o4)ccc3C)cc2)cc1
1.42

Another molecule: Clc1ccc(-c2nn3ncccc3c2-c2ccnc(Nc3ccccc3)n2)cc1
0.66

Queued: CN(C)CCOc1ccc(-c2nc(-c3ccncc3)c(-c3ccc4c(c3)CC/C4=N\O)[nH]2)cc1
4.1
